Target: T1, human ROR1 Frizzled-His domain protein (amino acid sequence at positions 165-305, Acrobiosystems, RO1-H5222) (human, UniProt Q01973 165-305)
T1 construct: also called Human ROR1 Frizzled-His protein; not shown: His tag
T1 sequence (Q01973 165-305 limits assumed, form in doubt): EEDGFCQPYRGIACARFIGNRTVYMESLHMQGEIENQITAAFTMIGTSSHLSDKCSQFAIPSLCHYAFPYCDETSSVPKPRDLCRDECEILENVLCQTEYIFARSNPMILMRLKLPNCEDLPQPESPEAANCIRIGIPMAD
Assay: SPR Biacore T200, method as Example 6 (antibody Fc-captured, antigen as analyte)
Binary call on kon: YES from 80000 M⁻¹ s⁻¹ upward, NO beneath that.

single domain antibody AHP15662-VHH4-Variant1 (Fc fusion, Fc format is inferred; not shown: human IgG1 Fc; vector and li) EVQLVESGGGLVQPGGSLRLSCAASYYISRFYAVGWYRQAPGKQRELVARISSGGWTYYADSVKGRFTISIDNSKNTLYLQMNSLRAEDTAVYYCNARNLWGQGTLVTVSS = YES
single domain antibody AHF21721 (Fc fusion, Fc format is inferred; not shown: human IgG1 Fc; vector and li) EVQLVESGGGLVQPGGSLRLSCAASGFISRFYAMGWYRQAPGKQRELVARISSMGWTYYADSVKGRFTISIDNSKNTLYLQMNSLRAEDTAVYYCNARNLWGQGTLVTVSS = NO
single domain antibody AHF21711 (Fc fusion, Fc format is inferred; not shown: human IgG1 Fc; vector and li) EVQLVESGGGLVQPGGSLRLSCAASHSISRFYAIGWYRQAPGKQRELVARISSMGRTYYADSVKGRFTISIDNSKNTLYLQMNSLRAEDTAVYYCNARNLWGQGTLVTVSS = YES
single domain antibody AHP15662-VHH4-Variant2 (Fc fusion, Fc format is inferred; not shown: human IgG1 Fc; vector and li) EVQLVESGGGLVQPGGSLRLSCAASYFISRFYAVGWYRQAPGKQRELVARISSGGWTYYADSVKGRFTISIDNSKNTLYLQMNSLRAEDTAVYYCNARNLWGQGTLVTVSS = YES

For the next question, use this binder.
Decide: is the reported value of kon for single domain antibody AHF21720 (Fc fusion, Fc format is inferred; not shown: human IgG1 Fc; vector and li) EVQLVESGGGLVQPGGSLRLSCAASGYISRFYAMGWYRQAPGKQRELVARISSLGWTYYADSVKGRFTISIDNSKNTLYLQMNSLRAEDTAVYYCNARNLWGQGTLVTVSS equal to or greater than 80000 M⁻¹ s⁻¹?
NO
